- Test Summary: self-splicing fitness, log relative to wild type (ln ratio); higher = more splicing; Tetrahymena group I intron in knt gene, E. coli kanamycin selection, DiMSum; sequences stand for … in CUCUCU…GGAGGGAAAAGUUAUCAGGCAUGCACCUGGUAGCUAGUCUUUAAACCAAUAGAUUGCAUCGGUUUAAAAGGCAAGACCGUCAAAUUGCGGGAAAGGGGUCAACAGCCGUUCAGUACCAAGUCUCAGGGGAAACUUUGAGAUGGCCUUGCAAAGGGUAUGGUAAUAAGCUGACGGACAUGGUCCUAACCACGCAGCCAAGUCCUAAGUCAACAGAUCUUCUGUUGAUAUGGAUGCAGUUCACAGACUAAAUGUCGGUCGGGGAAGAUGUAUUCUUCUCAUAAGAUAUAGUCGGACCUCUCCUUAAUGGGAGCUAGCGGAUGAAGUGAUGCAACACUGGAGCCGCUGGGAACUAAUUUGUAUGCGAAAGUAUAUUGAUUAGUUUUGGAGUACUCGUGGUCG;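 also: selection with 25 µg/mL kanamycin versus none on LB agar overnight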
- Measurement Parameters: 37 °C
Readout Kind: self-splicing fitness (ln)

Ask: Consider the sequence shown here: CUGUAGCAAUAUUACGUACU What is its recorded self-splicing fitness (ln)?
Result: -1.3

Ask: Consider the sequence shown here: AUGAAGCAAUAUUACGACUU What is its recorded self-splicing fitness (ln)?
Result: -0.0268

Ask: Consider the sequence shown here: AUGCAGCAAUAUUACGUCCU What is its recorded self-splicing fitness (ln)?
Result: 0.786

Ask: Consider the sequence shown here: UAGAAGCAAUAUUACGACUU What is its recorded self-splicing fitness (ln)?
Result: -0.183

Ask: Consider the sequence shown here: AGCCAGCAAUAUUACGUGCA What is its recorded self-splicing fitness (ln)?
Result: 0.0293

Ask: Consider the sequence shown here: AGAGAGCAAUAUUACGUUGG What is its recorded self-splicing fitness (ln)?
Result: -2.76

Ask: Consider the sequence shown here: GAUAAGCAAUAUUACGUUUC What is its recorded self-splicing fitness (ln)?
Result: -2.34

Ask: Consider the sequence shown here: ACAUAGCAAUAUUACGAUGA What is its recorded self-splicing fitness (ln)?
Result: -0.575

Ask: Consider the sequence shown here: GCGUAGCAAUAUUACGAGAC What is its recorded self-splicing fitness (ln)?
Result: -2.37

Ask: Consider the sequence shown here: UUGAAGCAAUAUUACGGGGG What is its recorded self-splicing fitness (ln)?
Result: -1.9

Ask: Consider the sequence shown here: CGACAGCAAUAUUACGUCCG What is its recorded self-splicing fitness (ln)?
Result: -1.04

Ask: Consider the sequence shown here: CCCGAGCAAUAUUACGUGGC What is its recorded self-splicing fitness (ln)?
Result: -3.58

Ask: Consider the sequence shown here: CUCUAGCAAUAUUACGCCAA What is its recorded self-splicing fitness (ln)?
Result: -2.31

Ask: Consider the sequence shown here: AGGCAGCAAUAUUACGCUAU What is its recorded self-splicing fitness (ln)?
Result: -0.464

Ask: Consider the sequence shown here: UUAUAGCAAUAUUACGGGUA What is its recorded self-splicing fitness (ln)?
Result: -1.65

Ask: Consider the sequence shown here: AGGGAGCAAUAUUACGGGGA What is its recorded self-splicing fitness (ln)?
Result: -2.64

Ask: Consider the sequence shown here: GCCGAGCAAUAUUACGGCCA What is its recorded self-splicing fitness (ln)?
Result: -1.52

Ask: Consider the sequence shown here: ACUCAGCAAUAUUACGCGAU What is its recorded self-splicing fitness (ln)?
Result: -2.18

Ask: Consider the sequence shown here: GACAAGCAAUAUUACGUACG What is its recorded self-splicing fitness (ln)?
Result: -0.508

Ask: Consider the sequence shown here: GCCAAGCAAUAUUACGUAUU What is its recorded self-splicing fitness (ln)?
Result: -2.28

Ask: Consider the sequence shown here: GUGAAGCAAUAUUACGACUU What is its recorded self-splicing fitness (ln)?
Result: -0.276

Ask: Consider the sequence shown here: UUAAAGCAAUAUUACGCGAC What is its recorded self-splicing fitness (ln)?
Result: -1.72

Ask: Consider the sequence shown here: UGACAGCAAUAUUACGUUCA What is its recorded self-splicing fitness (ln)?
Result: 0.0202

Ask: Consider the sequence shown here: AUCAAGCAAUAUUACGUGCU What is its recorded self-splicing fitness (ln)?
Result: -1.7

Ask: Consider the sequence shown here: UCGCAGCAAUAUUACGACAC What is its recorded self-splicing fitness (ln)?
Result: -2.78

Ask: Consider the sequence shown here: UUGUAGCAAUAUUACGCGCA What is its recorded self-splicing fitness (ln)?
Result: 0.43

Ask: Consider the sequence shown here: ACGGAGCAAUAUUACGGUUG What is its recorded self-splicing fitness (ln)?
Result: -2.22

Ask: Consider the sequence shown here: GCGGAGCAAUAUUACGGCAU What is its recorded self-splicing fitness (ln)?
Result: -0.979

Ask: Consider the sequence shown here: GGUAAGCAAUAUUACGUGUU What is its recorded self-splicing fitness (ln)?
Result: -0.901

Ask: Consider the sequence shown here: CCCAAGCAAUAUUACGAAGC What is its recorded self-splicing fitness (ln)?
Result: -2.7

Ask: Consider the sequence shown here: UCCGAGCAAUAUUACGGCAU What is its recorded self-splicing fitness (ln)?
Result: -1.62

###

- Test Summary: self-splicing fitness, log relative to wild type (ln ratio); higher = more splicing; Tetrahymena group I intron in knt gene, E. coli kanamycin selection, DiMSum; sequences stand for … in CUCUCU…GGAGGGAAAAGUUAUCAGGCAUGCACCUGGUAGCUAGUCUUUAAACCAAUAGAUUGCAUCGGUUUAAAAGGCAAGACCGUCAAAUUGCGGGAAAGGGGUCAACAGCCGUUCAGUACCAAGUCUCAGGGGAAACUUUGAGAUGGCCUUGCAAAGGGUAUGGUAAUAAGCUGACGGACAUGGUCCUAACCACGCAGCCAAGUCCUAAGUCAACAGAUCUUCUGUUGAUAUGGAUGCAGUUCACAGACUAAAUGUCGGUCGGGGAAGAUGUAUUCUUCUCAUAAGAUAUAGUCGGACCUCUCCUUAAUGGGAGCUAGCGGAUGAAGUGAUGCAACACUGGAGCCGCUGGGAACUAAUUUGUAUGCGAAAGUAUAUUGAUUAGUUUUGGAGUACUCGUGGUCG
- Measurement Parameters: 30 °C
Readout Kind: self-splicing fitness (ln)

Ask: Consider the sequence shown here: UAUGAGCAAUAUUACGGUAU What is its recorded self-splicing fitness (ln)?
Result: -4.03

Ask: Consider the sequence shown here: AGGUAGCAAUAUUACGGAAU What is its recorded self-splicing fitness (ln)?
Result: -2.68

Ask: Consider the sequence shown here: AUACAGCAAUAUUACGACGA What is its recorded self-splicing fitness (ln)?
Result: -1.84

Ask: Consider the sequence shown here: GGCAAGCAAUAUUACGGAUU What is its recorded self-splicing fitness (ln)?
Result: -0.462

Ask: Consider the sequence shown here: AGCUAGCAAUAUUACGGCUA What is its recorded self-splicing fitness (ln)?
Result: -0.83

Ask: Consider the sequence shown here: GUACAGCAAUAUUACGGUAG What is its recorded self-splicing fitness (ln)?
Result: -1.31

Ask: Consider the sequence shown here: CGUUAGCAAUAUUACGCGCA What is its recorded self-splicing fitness (ln)?
Result: -1.01

Ask: Consider the sequence shown here: GAAUAGCAAUAUUACGUCCG What is its recorded self-splicing fitness (ln)?
Result: -1.39

###

- Test Summary: self-splicing fitness, log relative to wild type (ln ratio); higher = more splicing; Tetrahymena group I intron in knt gene, E. coli kanamycin selection, DiMSum; sequences stand for … in CUCUCU…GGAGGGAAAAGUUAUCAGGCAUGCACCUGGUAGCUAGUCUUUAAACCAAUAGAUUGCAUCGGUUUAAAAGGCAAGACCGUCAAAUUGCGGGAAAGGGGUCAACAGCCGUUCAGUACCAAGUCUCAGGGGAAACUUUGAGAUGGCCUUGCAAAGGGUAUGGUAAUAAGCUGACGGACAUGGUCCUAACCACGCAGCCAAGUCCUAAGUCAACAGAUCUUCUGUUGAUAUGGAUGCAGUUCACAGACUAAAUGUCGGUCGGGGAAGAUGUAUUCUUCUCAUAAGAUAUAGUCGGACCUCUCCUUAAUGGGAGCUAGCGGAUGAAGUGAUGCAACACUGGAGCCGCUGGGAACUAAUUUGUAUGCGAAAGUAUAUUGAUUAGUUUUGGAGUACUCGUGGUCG
- Measurement Parameters: 37 °C
Give measured self-splicing fitness (ln) for each item. Keep answers brief.
Lab note: record just the number, no unit beside it.

Ask: Consider the sequence shown here: GGCGAGCAAUAUUACGGUUA What is its recorded self-splicing fitness (ln)?
Result: 0.0284

Ask: Consider the sequence shown here: AUGGAGCAAUAUUACGGCCU What is its recorded self-splicing fitness (ln)?
Result: -0.862

Ask: Consider the sequence shown here: AGCCAGCAAUAUUACGCUCG What is its recorded self-splicing fitness (ln)?
Result: -1.58

Ask: Consider the sequence shown here: GGCAAGCAAUAUUACGGCGC What is its recorded self-splicing fitness (ln)?
Result: -0.265

Ask: Consider the sequence shown here: ACCAAGCAAUAUUACGAAAC What is its recorded self-splicing fitness (ln)?
Result: -1.71

Ask: Consider the sequence shown here: UCCGAGCAAUAUUACGUGGG What is its recorded self-splicing fitness (ln)?
Result: -2.56

Ask: Consider the sequence shown here: AAUUAGCAAUAUUACGACGA What is its recorded self-splicing fitness (ln)?
Result: -0.15

Ask: Consider the sequence shown here: AUUCAGCAAUAUUACGUGAU What is its recorded self-splicing fitness (ln)?
Result: -0.187

Cited source: the supplement of paper PMC7877785
